Measurement Target: T1, human insulin receptor (HIR), purified from transfected cells after solubilization with Triton X-100 (human, UniProt P06213-2 28-1370, limits assumed)
T1 construct: mature
T1 sequence (P06213 other isoform, or with tags, fused parts or gaps limits assumed): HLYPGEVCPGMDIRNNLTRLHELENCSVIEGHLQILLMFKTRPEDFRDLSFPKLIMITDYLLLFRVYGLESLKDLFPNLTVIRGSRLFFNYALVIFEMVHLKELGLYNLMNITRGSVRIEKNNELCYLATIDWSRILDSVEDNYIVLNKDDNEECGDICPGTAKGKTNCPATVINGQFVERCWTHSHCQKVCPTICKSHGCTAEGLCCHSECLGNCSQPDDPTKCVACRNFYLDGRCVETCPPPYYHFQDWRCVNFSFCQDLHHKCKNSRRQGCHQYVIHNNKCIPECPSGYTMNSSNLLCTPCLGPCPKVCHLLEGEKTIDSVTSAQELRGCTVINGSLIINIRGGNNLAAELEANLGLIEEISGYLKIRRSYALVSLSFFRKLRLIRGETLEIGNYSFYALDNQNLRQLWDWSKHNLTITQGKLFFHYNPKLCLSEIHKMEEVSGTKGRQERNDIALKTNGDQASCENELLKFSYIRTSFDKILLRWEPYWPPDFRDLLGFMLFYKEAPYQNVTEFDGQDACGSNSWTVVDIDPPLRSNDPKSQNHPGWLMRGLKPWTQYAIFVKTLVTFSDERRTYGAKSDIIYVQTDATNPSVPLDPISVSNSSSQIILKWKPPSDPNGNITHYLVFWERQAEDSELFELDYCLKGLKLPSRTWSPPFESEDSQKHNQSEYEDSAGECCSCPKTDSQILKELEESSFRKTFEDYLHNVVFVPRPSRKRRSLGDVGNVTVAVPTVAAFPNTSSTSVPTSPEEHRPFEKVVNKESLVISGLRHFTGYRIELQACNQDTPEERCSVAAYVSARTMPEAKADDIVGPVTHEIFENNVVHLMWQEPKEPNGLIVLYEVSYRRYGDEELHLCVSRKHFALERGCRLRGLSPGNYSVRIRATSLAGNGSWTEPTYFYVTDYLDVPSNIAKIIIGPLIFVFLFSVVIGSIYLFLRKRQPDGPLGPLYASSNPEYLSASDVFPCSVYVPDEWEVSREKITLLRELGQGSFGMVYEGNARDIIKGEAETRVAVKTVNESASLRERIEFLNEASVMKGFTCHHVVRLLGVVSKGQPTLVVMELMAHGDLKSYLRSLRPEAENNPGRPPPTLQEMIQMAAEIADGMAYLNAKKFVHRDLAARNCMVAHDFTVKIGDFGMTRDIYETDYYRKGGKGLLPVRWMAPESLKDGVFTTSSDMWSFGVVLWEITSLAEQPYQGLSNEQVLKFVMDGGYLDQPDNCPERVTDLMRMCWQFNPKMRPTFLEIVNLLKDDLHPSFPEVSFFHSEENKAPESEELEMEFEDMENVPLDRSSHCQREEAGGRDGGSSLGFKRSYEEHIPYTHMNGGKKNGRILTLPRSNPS
Experiment Description: competition with 125I-insulin on solubilized HIR, PEG precipitation
pKd: −log10 of the molar value.
Measurement Kind: pKd

{"columns": ["Binder", "Result Number"],
 "data": [
  ["S415 (not fully specified; C-terminus joined to chemical linker 23 of Table 3; C-C linked dimer, Synthetic truncated RP9 homodimer) peptide: ESFYDWFERQLGKX ESFYDWFERQLGKX", 7.00]
]}
